ASSAY_METHOD_TEXT: Pharmacokinetic study of tamatinib in rats after oral fostamatinib (UPLC-MS/MS of plasma)
Assay type: in vivo, Wistar male rats
CONDITION_CONTEXT: male, Wistar, rat, plasma, po, 12.5 mg/kg
QUANTITY_MEASURED: MRT
For clarity, give the value followed by its unit.

Which measured MRT value corresponds to COc1cc(Nc2ncc(F)c(Nc3ccc4c(n3)NC(=O)C(C)(C)O4)n2)cc(OC)c1OC [Tamatinib, tamatinib] ?
19.8 h

====

ASSAY_METHOD_TEXT: Pharmacokinetic study of tamatinib in rats after oral fostamatinib (UPLC-MS/MS of plasma)
Type: in vivo, Wistar male rats
CONDITION_CONTEXT: male, Wistar, rat, plasma, po, 12.5 mg/kg
Protocol: The analysis was performed on Waters® Acquity H-Class UPLC® tandem triple quadrupole mass spectrometer (TQD) (Waters, Milford, USA). The H-Class UPLC® system contained Acquity sample manager and Acquity quaternary solvent manager. TQD was equipped with electrospray ionization (ESI) probe. Samples were detected and quantified in multiple reaction monitoring (MRM) mode. […] These parameters were calculated using WinNonlin software (Pharsight Co., Mountain View, CA, USA).
QUANTITY_MEASURED: Tmax (h)
One number for each entry, in h.

Quick one: Tmax of COc1cc(Nc2ncc(F)c(Nc3ccc4c(n3)NC(=O)C(C)(C)O4)n2)cc(OC)c1OC [Tamatinib, tamatinib] ?
3
